For each record, write down the corresponding IC50.
Target: IKKε (Homo sapiens, UniProt Q14164)
Sequence (Q14164 whole entry, species assumed): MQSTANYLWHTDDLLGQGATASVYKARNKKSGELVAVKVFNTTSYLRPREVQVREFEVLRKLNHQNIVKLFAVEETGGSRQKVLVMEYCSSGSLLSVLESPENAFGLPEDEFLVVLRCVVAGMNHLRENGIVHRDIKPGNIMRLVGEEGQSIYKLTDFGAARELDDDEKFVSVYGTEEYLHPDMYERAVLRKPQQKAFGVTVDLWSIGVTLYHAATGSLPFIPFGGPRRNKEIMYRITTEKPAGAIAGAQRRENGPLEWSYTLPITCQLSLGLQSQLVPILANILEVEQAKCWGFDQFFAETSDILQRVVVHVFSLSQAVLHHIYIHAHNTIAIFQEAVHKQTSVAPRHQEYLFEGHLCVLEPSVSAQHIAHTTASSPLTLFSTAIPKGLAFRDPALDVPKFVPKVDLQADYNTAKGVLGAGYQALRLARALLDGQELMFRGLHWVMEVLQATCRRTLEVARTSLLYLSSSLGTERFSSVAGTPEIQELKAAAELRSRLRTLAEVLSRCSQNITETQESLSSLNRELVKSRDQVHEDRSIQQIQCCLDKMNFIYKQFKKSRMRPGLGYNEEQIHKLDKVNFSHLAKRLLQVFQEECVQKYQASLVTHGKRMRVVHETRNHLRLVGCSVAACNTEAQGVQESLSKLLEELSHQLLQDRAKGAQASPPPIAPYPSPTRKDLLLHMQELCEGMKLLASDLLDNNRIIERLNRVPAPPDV
Assay: IKKε biochemical assay
Details: 10 point 1:4 dose response, 30 uM top concentration, 90 min at 25° C., LabChip EZ Reader II; read-out: IKKε_IC50
Counter-ions that a name gives are not always drawn.

COc1nc(Nc2nccc(-c3ccc(OC4CN(C)C4)c(C#N)c3)n2)ccc1C(=O)N(C)C: 100 to 1000 nM
COc1nc(Nc2nccc(-c3ccc(OC4CCN(C(=O)[C@@H](C)O)CC4(F)F)c(C#N)c3)n2)ccc1N1CCN(C2COC2)C[C@H]1C (some centres unmarked): < 100 nM
COc1nc(Nc2nccc(-c3ccc(OC4CCN(C(=O)CO)CC4(F)F)c(C#N)c3)n2)ccc1C1CCN(C2COC2)CC1 (centres unmarked): < 100 nM
COc1nc(Nc2nccc(-c3ccc(OC4CCOCC4)c(C#N)c3)n2)ccc1C1CCN(C)C1 (centres unmarked): < 100 nM
COc1nc(Nc2nccc(-c3ccc(O[C@H]4CCN(C(=O)CO)C[C@H]4F)c(C#N)c3)n2)ccc1C(=O)N(C)C [Example 75, hydrochloride]: < 100 nM

Record IC50 for all entries; do not skip any.
1. COc1nc(Nc2nccc(-c3ccc(OC4CCOCC4)c(C#N)c3)n2)ccc1C(=O)N(C)CCO
2. COc1cc(Nc2nccc(-c3ccc(OC4CCN(C(=O)[C@H](C)O)CC4(F)F)c(C#N)c3)n2)ncc1N1CCN(C2COC2)CC1 (some centres unmarked)
3. CN(C)C(=O)c1ccc(Nc2nccc(-c3ccc(OC4CCOCC4)c(C#N)c3)n2)cn1
4. C[C@H](O)C(=O)N1CCC(Oc2ccc(-c3ccnc(Nc4cccnc4)n3)cc2C#N)C(F)(F)C1 (some centres unmarked)
5. COc1nc(Nc2nccc(-c3ccc(OC4COC4)c(C#N)c3)n2)ccc1N1CCN(C2COC2)CC1
6. COc1nc(Nc2nccc(-c3ccc(OC4CCOCC4)c(C#N)c3)n2)ccc1C(=O)N1C2COCC1CC(O)C2 (centres unmarked)

Reply:
1. < 100 nM
2. < 100 nM
3. < 100 nM
4. < 100 nM
5. 100 to 1000 nM
6. < 100 nM

Record IC50 for all entries; do not skip any.
1. Cc1nc(C(=O)N2CCC(Oc3ccc(-c4ccnc(Nc5ccc(N6CCN(C7COC7)CC6)cc5)n4)cc3C#N)CC2)n[nH]1
2. COc1cc(N2CCN(C3COC3)CC2)cnc1Nc1nccc(-c2ccc(OC3CCN(C(=O)[C@H](C)O)CC3(F)F)c(C#N)c2)n1 (some centres unmarked)

Reply:
["< 100 nM", "100 to 1000 nM"]

Task item: Consider the compound shown here: COc1nc(Nc2nccc(-c3ccc(N4CC5(CCN(C(=O)[C@@H](O)CO)CC5)C4)c(C#N)c3)n2)ccc1N1CCN(C2COC2)CC1 What is its recorded IC50?
Reply: < 100 nM
